// MIC lookup, one value per entry
- Test system: Staphylococcus aureus
- testName: Antibacterial activity against homo-Methicillin-resistant and tetracycline-resistant Staphylococcus aureus H14 harboring vraS S329L mutant gene by Etest method
- Format: functional
Positions of bridges follow the written chain, without caps; N, C: chain ends. Non-standard residues stand in square brackets, D forms with d. Residues, ends and D or L forms follow the SMILES beside them. *: point of attachment. Ileψ(thiazoline)Cys = CC[C@H](C)[C@H](N)C1=N[C@H](C(=O)*)CS1; dOrn = NCCC[C@@H](N)C(=O)O

# molecule, valueRelationSign, MIC (µg/mL)
measured = [
    ("CC[C@H](C)[C@H](N)C1=N[C@H](C(=O)N[C@@H](CC(C)C)C(=O)N[C@H](CCC(=O)O)C(=O)N[C@H](C(=O)N[C@H]2CCCCNC(=O)[C@H](CC(N)=O)NC(=O)[C@@H](CC(=O)O)NC(=O)[C@H](Cc3cnc[nH]3)NC(=O)[C@@H](Cc3ccccc3)NC(=O)[C@H]([C@@H](C)CC)NC(=O)[C@@H](CCCN)NC2=O)[C@@H](C)CC)CS1 [BACITRACIN] ({Ileψ(thiazoline)Cys}-L[dE]IK[dOrn]I[dF]H[dD]N; lactam 4-C)", "=", 96),
    ("C[C@@H]1O[C@@H]1P(=O)(O)O", "=", 96),
    ("CO[C@H]1/C=C/O[C@@]2(C)Oc3c(C)c(O)c4c(O)c(c(/C=N/N5CCN(C)CC5)c(O)c4c3C2=O)NC(=O)/C(C)=C\\C=C\\[C@H](C)[C@H](O)[C@@H](C)[C@@H](O)[C@@H](C)[C@H](OC(C)=O)[C@@H]1C", "=", 0.004),
    ("Cc1onc(-c2ccccc2)c1C(=O)N[C@@H]1C(=O)N2[C@@H]1SC(C)(C)[C@@H]2C(=O)O", ">", 256),
    ("C[C@@H](O)[C@H]1C(=O)N2C(C(=O)O)=C(SCCNC=N)C[C@H]12 [IMIPENEM ANHYDROUS]", ">", 32),
    ("CCCCCCCCCC(=O)N[C@@H](Cc1c[nH]c2ccccc12)C(=O)N[C@H](CC(N)=O)C(=O)N[C@@H](CC(=O)O)C(=O)N[C@@H]1C(=O)NCC(=O)N[C@@H](CCCN)C(=O)N[C@@H](CC(=O)O)C(=O)N[C@H](C)C(=O)N[C@@H](CC(=O)O)C(=O)NCC(=O)N[C@H](CO)C(=O)N[C@@H]([C@H](C)CC(=O)O)C(=O)N[C@@H](CC(=O)c2ccccc2N)C(=O)O[C@@H]1C", "=", 1.75),
]
